- System: UACC-257 melanoma
- experiment_notes: NCI tumour cell line growth inhibition, 48 h
observed_property: TGI

Here's what some known entries look like.
[[record]]
molecule = "Cc1cc(=O)oc2c(CNC(C(=O)O)C(C)O)c(O)ccc12 (stereo not given)"
experimental_system = "UACC-257 melanoma"
observed_property = "TGI"
measured_value = "> 100 µM"

[[record]]
molecule = "CS(=O)(=O)c1nc(Cl)c(Cl)c(C#N)c1Cl"
experimental_system = "UACC-257 melanoma"
observed_property = "TGI"
measured_value = "5.52 µM"

[[record]]
molecule = "C[N+](C)(Cc1ccc(NC(=O)CCCC(=O)ON2C(=O)CCC2=O)cc1)c1ccccc1"
experimental_system = "UACC-257 melanoma"
observed_property = "TGI"
measured_value = "< 0.01 µM"

[[record]]
molecule = "FC(F)(F)C1=NC(=NNc2nnc(-c3ccccc3)c(-c3ccccc3)n2)N=C(C(F)(F)F)C1"
experimental_system = "UACC-257 melanoma"
observed_property = "TGI"
measured_value = "> 100 µM"


From here, focus on the item given below.
// query With UACC-257 melanoma as the test system, provide measured TGI for this molecule: CC12C(=O)N(CCN)C(=O)C1C1c3ccccc3C2c2ccccc21 (stereo not given)
// result > 100 µM

###

Answer each item with its documented TGI.
- System: OVCAR-3 ovarian
- experiment_notes: NCI tumour cell line growth inhibition, 48 h

Recorded results for 2 molecules are shown here.
[[record]]
molecule = "CC(C)NC(=O)O/N=C1\\CCC2[C@@H]3CC=C4C[C@@H](OC(=O)NC(C)C)CC[C@]4(C)C3CC[C@]12C (stereo partly drawn)"
observed_property = "TGI"
measured_value = "3.6 µM"

[[record]]
molecule = "CC12C(=O)N(CCN)C(=O)C1C1c3ccccc3C2c2ccccc21 (stereo not drawn)"
observed_property = "TGI"
measured_value = "> 100 µM"


// each molecule listed below needs its TGI
1. O=P1(O)c2ccccc2CS(=O)(=O)Cc2ccccc21
2. COc1ccc(NC(=O)O[C@H]2[C@H](O[C@H]3[C@@H](O)COC(O[C@H]4C[C@H]5[C@@H]6CC=C7C[C@@H](O)CC[C@]7(C)[C@H]6CC[C@]5(C)[C@H]4[C@H](C)C(=O)CCC(C)C)[C@@H]3OC(C)=O)OC[C@@H](O)[C@@H]2O)cc1 (stereo partly drawn)
3. CC1C(=O)C23OC[C@@]1(C)C1(O)CC[C@@H](C)[C@]21CC3=O (stereo partly drawn)
4. O=C1C=C(Nc2ccccc2C(=O)CC(=O)C(=O)Nc2ccc(Cl)c(Cl)c2)c2ccccc2C1=O
5. CN(NC(=O)c1cccs1)C1=NCCN1

// result
["> 100 µM", "31.5 µM", "> 100 µM", "> 100 µM", "> 100 µM"]

// query Give reported TGI value for N#CC(c1ccccc1)(c1ccccc1)[C@@H](c1ccccc1)[C@H](Cc1ccccc1)NS(=O)(=O)c1ccccc1
// result > 100 µM

###

Please respond with reported TGI for every item in the list.
- Tested on: UACC-62 melanoma
- experiment_notes: NCI tumour cell line growth inhibition, 48 h
Answers are plain numbers, in µM.

Solved entries:
[[record]]
compound = "Cc1cc2c(C(C)C)c(O)c(O)c(C=O)c2c(O)c1-c1c(C)cc2c(C(C)C)c(O)c(O)c(C=O)c2c1O (tested in a mixture with another compound)"
measured_value = 4.23

[[record]]
compound = "CN(NC(=O)CC(=O)NN(C)C(=S)c1ccc(Cl)cc1)C(=S)c1ccc(Cl)cc1"
measured_value = 30.2

[[record]]
compound = "N#Cc1ccccc1Nc1ccccc1S"
measured_value = 37.8

[[record]]
compound = "CC12OC3CC(O1)C1(C=O)C4CCC5(C)C(c6ccc(=O)oc6)CCC5(O)C4CCC1(C3)O2 (stereo not given)"
measured_value = 0.781


Okay, now this compound:
// query Using the record for CS(=O)(=O)c1nc(Cl)c(Cl)c(C#N)c1Cl , state its measured TGI.
// result 10.8
